# Tested on: MCF-7 cells
# test protocol: MTT cell viability assay, MCF-7
# Type: cell-based
# experimental conditions: Homo sapiens, MCF7; MCF-7, MTT, 72 h; read-out: Cytotoxicity IC50
The following compounds are listed with their measured IC50 values.
I only need the number, in µM, no unit after it.

structure as smiles	experimental system	IC50 (µM)
Cc1ccccc1C(=O)Nc1cc(Cc2n[nH]c(=O)c3ccccc23)cc(-c2c(C)noc2C)c1	MCF-7 cells	18.7
Cc1cccc(C(=O)Nc2cc(Cc3n[nH]c(=O)c4ccccc34)cc(-c3c(C)noc3C)c2)c1	MCF-7 cells	12.8

Shifting focus to the compound that follows.
// `CC(=O)Nc1cccc(CNc2cc(Cc3n[nH]c(=O)c4ccccc34)cc(-c3c(C)noc3C)c2)c1` : IC50 value = 11.7

====

# experimental system: recombinant BRD4 (BD1 + BD2) (Homo sapiens, UniProt O60885)
# Construct: employing a recombinant BRD4 (BD1 + BD2) and its corresponding ligand
# test protocol: BRD4 TR-FRET activity assay
# Assay type: binding
# experimental conditions: 1 μmol/L; read-out: BRD4 inhibition rate
recorded endpoint: inhibition at 1 µM (%)
I only need the number, in %, no unit after it.

Please review the entries below; each comes with its answer.
structure as smiles	unit name	measured result
COc1ccc(S(=O)(=O)Nc2cc(Cc3n[nH]c(=O)c4ccccc34)cc(-c3c(C)noc3C)c2)cc1	%	70
Cc1noc(C)c1-c1cc(Cc2n[nH]c(=O)c3ccccc23)cc(NS(=O)(=O)c2ccc(O)cc2)c1	%	7
COc1ccc(S(=O)(=O)Nc2cc(Cc3n[nH]c(=O)c4ccccc34)cc(-c3c(C)noc3C)c2)cc1OC	%	32
CNC(=O)c1cc(Cc2n[nH]c(=O)c3ccccc23)cc(-c2c(C)noc2C)c1	%	5
Cc1ccc(CS(=O)(=O)Nc2cc(Cc3n[nH]c(=O)c4ccccc34)cc(-c3c(C)noc3C)c2)cc1	%	55

// `Cc1noc(C)c1-c1cc(Cc2n[nH]c(=O)c3ccccc23)cc(NC(=O)c2ccccc2)c1` : inhibition at 1 µM value = 64

// `Cc1noc(C)c1-c1cc(Cc2n[nH]c(=O)c3ccccc23)cc(C(=O)N2CC[C@H](O)C2)c1` : inhibition at 1 µM value = 74

// `Cc1cccc(CS(=O)(=O)Nc2cc(Cc3n[nH]c(=O)c4ccccc34)cc(-c3c(C)noc3C)c2)c1` : inhibition at 1 µM value = 38

// `CCCS(=O)(=O)Nc1cc(Cc2n[nH]c(=O)c3ccccc23)cc(-c2c(C)noc2C)c1` : inhibition at 1 µM value = 4

====

The following molecules are listed with their measured melting point values.

structure as smiles	measured result
Cc1noc(C)c1-c1cc(Cc2n[nH]c(=O)c3ccccc23)cc(NS(=O)(=O)c2ccc(O)cc2)c1	238 to 239 °C

// `CCCS(=O)(=O)Nc1cc(Cc2n[nH]c(=O)c3ccccc23)cc(-c2c(C)noc2C)c1` : melting point value = 165 to 166 °C

// `Cc1noc(C)c1-c1cc(Cc2n[nH]c(=O)c3ccccc23)cc(C(=O)N[C@H]2CC[C@H](O)CC2)c1` : melting point value = 199 to 200 °C

// `Cc1noc(C)c1-c1cc(Cc2n[nH]c(=O)c3ccccc23)cc(NS(=O)(=O)C2CC2)c1` : melting point value = 140 to 141 °C

====

The following compounds are listed with their measured melting point values.

Please review the entries below; each comes with its answer.
structure as smiles	measured result
Cc1noc(C)c1-c1cc(Cc2n[nH]c(=O)c3ccccc23)cc(NS(=O)(=O)c2ccc(F)cc2)c1	151 to 152 °C
Cc1noc(C)c1-c1cc(Cc2n[nH]c(=O)c3ccccc23)cc(NCc2ccc(F)c(Br)c2)c1	> 250 °C
Cc1noc(C)c1-c1cc(Cc2n[nH]c(=O)c3ccccc23)cc(NCc2ccccc2)c1	230 to 231 °C
Cc1cccc(C(=O)Nc2cc(Cc3n[nH]c(=O)c4ccccc34)cc(-c3c(C)noc3C)c2)c1	> 250 °C
Cc1noc(C)c1-c1cc(Cc2n[nH]c(=O)c3ccccc23)cc(C(=O)N2CCn3nc(C(F)(F)F)nc3C2)c1	161 to 162 °C

// `Cc1noc(C)c1-c1cc(Cc2n[nH]c(=O)c3ccccc23)cc(C(=O)N[C@H]2CC[C@@H](O)CC2)c1` : melting point value = 214 to 215 °C

// `Cc1noc(C)c1-c1cc(Cc2n[nH]c(=O)c3ccccc23)cc(NC(=O)c2cccc(C(F)(F)F)c2)c1` : melting point value = 231 to 232 °C

// `Cc1noc(C)c1-c1cc(Cc2n[nH]c(=O)c3ccccc23)cc(C(=O)NCc2cccnc2)c1` : melting point value = > 250 °C

====

# experimental system: recombinant BRD4 (BD1 + BD2) (Homo sapiens, UniProt O60885)
# Construct: employing a recombinant BRD4 (BD1 + BD2) and its corresponding ligand
# test protocol: BRD4 TR-FRET activity assay
# Assay type: binding
# experimental conditions: 1 μmol/L; read-out: BRD4 inhibition rate
recorded endpoint: inhibition at 1 µM (%)
I only need the number, in %, no unit after it.

compound	inhibition at 1 µM (%)
Cc1noc(C)c1-c1cc(Cc2n[nH]c(=O)c3ccccc23)cc(NC(=O)c2ccc(N)cc2)c1 [DDT32]	54
Cc1noc(C)c1-c1cc(Cc2n[nH]c(=O)c3ccccc23)cc(C(=O)NCc2cccnc2)c1 [DDT07]	8
Cc1noc(C)c1-c1cc(Cc2n[nH]c(=O)c3ccccc23)cc(NS(=O)(=O)C2CCCCC2)c1 [DDT56]	24
Cc1ccc(S(=O)(=O)Nc2cc(Cc3n[nH]c(=O)c4ccccc34)cc(-c3c(C)noc3C)c2)cn1 [DDT66]	8
Cc1noc(C)c1-c1cc(Cc2n[nH]c(=O)c3ccccc23)cc(NCc2cccc([N+](=O)[O-])c2)c1 [DDT36]	3

// Cc1noc(C)c1-c1cc(Cc2n[nH]c(=O)c3ccccc23)cc(NCc2ccc(Cl)cc2)c1 [DDT39] : inhibition at 1 µM value = 16

// Cc1noc(C)c1-c1cc(Cc2n[nH]c(=O)c3ccccc23)cc(NS(=O)(=O)c2ccccc2)c1 [DDT57] : inhibition at 1 µM value = 36

// Cc1noc(C)c1-c1cc(Cc2n[nH]c(=O)c3ccccc23)cc(NS(=O)(=O)c2ccc(OCc3ccccc3)cc2)c1 [DDT74] : inhibition at 1 µM value = 34

====

The following molecules are listed with their measured melting point values.

structure as smiles	melting point
CCc1ccc(S(=O)(=O)Nc2cc(Cc3n[nH]c(=O)c4ccccc34)cc(-c3c(C)noc3C)c2)cc1	202 to 203 °C
CNC(=O)c1cc(Cc2n[nH]c(=O)c3ccccc23)cc(-c2c(C)noc2C)c1	> 250 °C
Cc1noc(C)c1-c1cc(Cc2n[nH]c(=O)c3ccccc23)cc(NC(=O)c2cccc([N+](=O)[O-])c2)c1	> 250 °C
Cc1ccc(CNc2cc(Cc3n[nH]c(=O)c4ccccc34)cc(-c3c(C)noc3C)c2)cc1	215 to 216 °C
Cc1noc(C)c1-c1cc(Cc2n[nH]c(=O)c3ccccc23)cc(NS(=O)(=O)c2cccc(S(C)(=O)=O)c2)c1	243 to 244 °C

Shifting focus to the molecule that follows.
// `Cc1noc(C)c1-c1cc(Cc2n[nH]c(=O)c3ccccc23)cc(NCc2ccc(Br)cc2)c1` : melting point value = 200 to 201 °C

====

# Test system: MDA-MB-231 cells
# test protocol: MTT cell viability assay, MDA-MB-231
# Format: cell-based
# experimental conditions: Homo sapiens; MDA-MB-231, MTT, 72 h; read-out: Cytotoxicity IC50
recorded endpoint: pIC50
Hey, just a heads up that pIC50 is the negative log base 10 of the concentration in molar.

molecule	recorded endpoint	measured result
CC(=O)Nc1cccc(CNc2cc(Cc3n[nH]c(=O)c4ccccc34)cc(-c3c(C)noc3C)c2)c1 [DDT47]	pIC50	4.77
Cc1noc(C)c1-c1cc(Cc2n[nH]c(=O)c3ccccc23)cc(C(=O)N2CC[C@H](O)C2)c1 [DDT14]	pIC50	5.08
O=C(c1cc(Cc2n[nH]c(=O)c3ccccc23)ccc1F)N1CCN(C(=O)C2CC2)CC1 [Olaparib, reference compound]	pIC50	5.09
Cc1ccc(S(=O)(=O)Nc2cc(Cc3n[nH]c(=O)c4ccccc34)cc(-c3c(C)noc3C)c2)cc1 [DDT59]	pIC50	5.13
Cc1ccc(C(=O)Nc2cc(Cc3n[nH]c(=O)c4ccccc34)cc(-c3c(C)noc3C)c2)cc1 [DDT25]	pIC50	4.94

Shifting focus to the molecule that follows.
// Cc1noc(C)c1-c1cc(Cc2n[nH]c(=O)c3ccccc23)cc(NC(=O)c2ccccc2C(F)(F)F)c1 [DDT26] : pIC50 value = 5.12

====

# experimental system: recombinant BRD4 (BD1 + BD2) (Homo sapiens, UniProt O60885)
# Construct: employing a recombinant BRD4 (BD1 + BD2) and its corresponding ligand
# test protocol: BRD4 TR-FRET activity assay;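 further: signal rises with BET ligand binding to the bromodomains, so inhibitors lower it, 120 min incubation at room temperature, 1% DMSO, wells lacking ligand as negative control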
# Assay type: binding
# experimental conditions: 1 μmol/L; read-out: BRD4 inhibition rate
recorded endpoint: inhibition at 1 µM (%)
I only need the number, in %, no unit after it.

Please review the entries below; each comes with its answer.
molecule	unit name	inhibition at 1 µM
CCCc1ccc(S(=O)(=O)Nc2cc(Cc3n[nH]c(=O)c4ccccc34)cc(-c3c(C)noc3C)c2)cc1 [DDT63]	%	51
Cc1noc(C)c1-c1cc(Cc2n[nH]c(=O)c3ccccc23)cc(C(=O)N2CCNCC2)c1 [DDT15]	%	59
Cc1noc(C)c1-c1cc(Cc2n[nH]c(=O)c3ccccc23)cc(NS(=O)(=O)c2ccccc2C(F)(F)F)c1 [DDT80]	%	15
Cc1noc(C)c1-c1cc(Cc2n[nH]c(=O)c3ccccc23)cc(NC(=O)c2ccc([N+](=O)[O-])cc2)c1 [DDT30]	%	74
Cc1noc(C)c1-c1cc(Cc2n[nH]c(=O)c3ccccc23)cc(C(=O)NCc2ccccc2)c1 [DDT06]	%	4
Cc1noc(C)c1-c1cc(Cc2n[nH]c(=O)c3ccccc23)cc(C(=O)N2CCn3nc(C(F)(F)F)nc3C2)c1 [DDT18]	%	37
Cc1noc(C)c1-c1cc(Cc2n[nH]c(=O)c3ccccc23)cc(NCc2ccc(C(F)(F)F)cc2)c1 [DDT46]	%	39
CC(=O)Nc1ccc(S(=O)(=O)Nc2cc(Cc3n[nH]c(=O)c4ccccc34)cc(-c3c(C)noc3C)c2)cc1 [DDT73]	%	38
Cc1noc(C)c1-c1cc(Cc2n[nH]c(=O)c3ccccc23)cc(NS(=O)(=O)c2ccccc2Br)c1 [DDT91]	%	8
Cc1noc(C)c1-c1cc(Cc2n[nH]c(=O)c3ccccc23)cc(NS(=O)(=O)c2cccc(F)c2)c1 [DDT85]	%	5

// Cc1noc(C)c1-c1cc(Cc2n[nH]c(=O)c3ccccc23)cc(C(=O)NC2CCS(=O)(=O)CC2)c1 [DDT09] : inhibition at 1 µM value = 4

Just for reference, paper PMC10720709 is where these values come from.
